Where do these numbers come from? They come from ChEMBL document CHEMBL1201862.

Test system: SF-268
assay_procedure: NCI tumour cell line growth inhibition, 48 h
The source made the active and inactive calls. No stated cut-off is given here; in the data, active = GI50 up to about 1.1 µM and inactive = higher.
GI50 for assorted molecules

As a guide, the following entries are already answered.
Fc1ccc(/N=N/N2CCCC2)cc1 | > 100 µM (inactive)
CC1(C(=O)O)C[C@](C)(C(=O)OCc2ccccc2)C[C@](C)(C(=O)OCc2ccccc2)C1 (stereo not given in full) | 47.9 µM (inactive)
COc1ccc(/C=C2\CCC(CN3CCOCC3)C2=O)cc1 (stereo not given) | 6.76 µM (inactive)

// GI50 lookup, key: N=C1CCCC1C(=S)SCCC(N)=O (stereo not given)
> 100 µM (inactive)

Do the same for "CCCCC(=O)OC[n+]1cccc(-c2c(COC(=O)NC(C)C)c(COC(=O)NC(C)C)c3n2CCC3)c1" please
24.8 µM (inactive)

Do the same for CCC/C=C/C=C/C(=O)OC1/C(=C/C(=O)OC)CC2CC(C(C)O)OC(=O)CC(O)CC3CC(OC(C)=O)C(C)(C)C(O)(CC4C/C(=C/C(=O)OC)CC(/C=C/C(C)(C)C1(O)O2)O4)O3 (stereo not given) please
6.95 µM (inactive)

Do the same for "c1ccc(/N=C(/Nc2ccccc2)N2CCCC2)cc1" please
> 100 µM (inactive)

Do the same for CC[P+](C)(Cc1ccccc1)c1ccccc1.O=C(OC(C(=O)[O-])C(OC(=O)c1ccccc1)C(=O)O)c1ccccc1 (stereo not given) please
> 100 µM (inactive)

Do the same for "O=Cc1cn(S(=O)(=O)c2ccccc2)c2ccccc12" please
25.5 µM (inactive)

Do the same for "CCNCCNC(=O)c1ccc(I)cc1" please
> 100 µM (inactive)

###

System: KM12
assay_procedure: NCI tumour cell line growth inhibition, 48 h
Activity calls are given as the source filed them. Rule as the data show it: active = GI50 up to about 1.1 µM and inactive = higher.
readout_type: GI50

CC(NC1=NCCO1)c1cccs1 (configuration not stated) | 15.7 µM (inactive)
COc1ccc(CCNC(=O)Cc2ccccc2CO)cc1OC | > 100 µM (inactive)
COc1ccc(C(c2c(O)c3ccccc3n(C)c2=O)c2c(O)c3ccccc3n(C)c2=O)cc1 | 22.4 µM (inactive)
C=C(/C=C/C=C(\C)CCC=C(C)C)[C@@H]1CC[C@]2([C@H](CCCO)/C(=C(/C)C=O)CC[C@]2(C)O)[C@@H]1O | 1.41 µM (inactive)
O=C1/C(=C\c2cccc(Oc3ccccc3)c2)SC(c2ccccc2)N1c1ccccc1 (configuration not stated) | 46.9 µM (inactive)
O=[N+]([O-])c1cn[n+]([O-])c2ccccc12 | 5.36 µM (inactive)

// GI50 lookup, key: "O=C(Nc1ccccc1)c1cc2ccccc2c(/N=N/c2ccc([N+](=O)[O-])cc2)c1O"
> 100 µM (inactive)

Do the same for Cc1ccc(S(=O)(=O)N2CCC2c2ccccc2)cc1 (configuration not stated) please
82 µM (inactive)

Do the same for CC1=NN(c2cccc(Cl)c2)C2(C1=Cc1cccs1)C(Cl)C(=O)N2c1nc2ccccc2s1 (configuration not stated) please
28.7 µM (inactive)

Do the same for "N/C(=N\O)N/N=C/c1ccc(C(F)(F)F)cc1" please
13.1 µM (inactive)

###

Tested on: NCI-H522
assay_procedure: NCI tumour cell line growth inhibition, 48 h
Active and inactive are the calls of the source. Cut-off read from the data, not from the text of the source: active = GI50 up to about 1.1 µM and inactive = higher.
readout_type: GI50

As a guide, the following entries are already answered.
O=C(CC/C(CC(=O)c1ccc(Cl)cc1)=N/O)Nc1ccc(Cl)c(Cl)c1 | 82.6 µM (inactive)
C/C(=C\CBr)CCC(Br)C(C)(C)Cl (stereo unspecified) | > 100 µM (inactive)
O=c1c2ccccc2c2c3c1cccc3c1cccc3c(=O)c4ccccc4c2c31 | > 100 µM (inactive)
Fc1ccc(/N=N/N2CCCC2)cc1 | > 100 µM (inactive)
C/C=N\n1c(C)n[nH]c1=O | > 100 µM (inactive)
N#Cc1c(-c2ccccc2)c(/N=N/c2ccc(Cl)cc2)c(=O)n2c1[nH]c1ccccc12 | 79.4 µM (inactive)
C[N+](C)(C)Cc1c(CC#N)[nH]c2ccccc12 | 36.8 µM (inactive)
O=S1(=O)c2ccccc2-c2nccc3ccnc1c23 | 8.07 µM (inactive)

// GI50 lookup, key: Cc1ccc(NC(=O)C(=O)C(C(=O)c2ccc3ccccc3c2)C2OC(=O)c3ccccc32)c(C)c1 (stereo unspecified)
12.8 µM (inactive)

Do the same for "Cc1c(C(=O)N2CCN(c3ccc([N+](=O)[O-])cc3)CC2)[n+]([O-])c2cc(Cl)c(Cl)cc2[n+]1[O-]" please
16.7 µM (inactive)

Do the same for "COc1cc2ccnc(C#N)c2cc1OCc1ccccc1" please
50 µM (inactive)
